B1: RAB40A (parent)
chain: NWLGRPSKVLSLQDLCCRTIVSCT

- Variants of: B1
- Test Method Notes: protein stability index of a GFP-peptide fusion (GPS, HEK-293T) (PSI 1-6); higher = more stable;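 further: lentivirally expressed fusions sorted by FACS into six bins by GFP to DsRed ratio, PSI derived from sequencing read proportions per bin multiplied by bin number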
- Experimental Setup: c terminus: a fixed tail appended
# protein stability index per record follows
Write the number on its own, no unit after it.

Worked set:
Variant | Assay Endpoint | Value Observed
L15D | protein stability index | 2.02
C23S | protein stability index | 2.95
D14R | protein stability index | 1.51
C17M | protein stability index | 2.54
C17R | protein stability index | 3.23
L12N | protein stability index | 1.46

Retrieve protein stability index measured for `L12W` and print it.
2.25

Retrieve protein stability index measured for `L3S` and print it.
2.64

Retrieve protein stability index measured for `V21W` and print it.
2.46

Retrieve protein stability index measured for `R18F` and print it.
1.87

Retrieve protein stability index measured for `D14I` and print it.
1.48

Retrieve protein stability index measured for `Q13P` and print it.
1.68

Retrieve protein stability index measured for `Q13S` and print it.
2.67

Retrieve protein stability index measured for `K8H` and print it.
2.16
